The values you see were collected from PubChem BioAssay AID1963986.

- Test system: 171881-019-R-J1-PDC tumor spheroid viability
- test: Anticancer human tumor 171881-019-R-J1-PDC patient-derived invasive breast carcinoma cell line growth inhibition [PI3K]; active = viability on the fitted dose curve at most 10% of control; inactive = the rest
- experimental setup: second compound 0.316 µM; first compound 0.1 µM; spheroids with HUVEC and MSC
Outcome (select one): true for active, false for inactive

Test call, this compound: CCN1CCN(Cc2ccc(Nc3ncc(F)c(-c4cc(F)c5nc(C)n(C(C)C)c5c4)n3)nc2)CC1 + Cc1nc(NC(=O)N2CCCC2C(N)=O)sc1-c1ccnc(C(C)(C)C(F)(F)F)c1
false

Test call, this compound: CNC(=O)c1ccc(N2C(=S)N(c3ccc(C#N)c(C(F)(F)F)c3)C(=O)C2(C)C)cc1F + COc1c(OCCCN2CCOCC2)ccc2c3n(c(=NC(=O)c4cnc(N)nc4)nc12)CCN3
true

Test call, this compound: CC(=O)c1c(C)c2cnc(Nc3ccc(N4CCNCC4)cn3)nc2n(C2CCCC2)c1=O + CC(Nc1ncnc2nc[nH]c12)c1cc2cccc(Cl)c2c(=O)n1-c1ccccc1
false

Test call, this compound: CC1(C)CCC(Nc2ncc(C(F)(F)F)c(-c3c[nH]c4c(P(C)(C)=O)c(C#N)ccc34)n2)CN1 (stereo not given) + COc1c(OCCCN2CCOCC2)ccc2c3n(c(=NC(=O)c4cnc(N)nc4)nc12)CCN3
true

Test call, this compound: C#Cc1c(F)ccc2cc(O)cc(-c3ncc4c(N5CC6CCC(C5)N6)nc(OCC56CCCN5CC(F)C6)nc4c3F)c12 (stereo not given) + CC(Nc1ncnc2nc[nH]c12)c1cc2cccc(Cl)c2c(=O)n1-c1ccccc1
false

Test call, this compound: CC1(C)CCC(CN2CCN(c3ccc(C(=O)NS(=O)(=O)c4ccc(NCC5CCOCC5)c([N+](=O)[O-])c4)c(Oc4cnc5[nH]ccc5c4)c3)CC2)=C(c2ccc(Cl)cc2)C1 + COc1c(OCCCN2CCOCC2)ccc2c3n(c(=NC(=O)c4cnc(N)nc4)nc12)CCN3
true

Test call, this compound: CC(Cn1ccc(-c2ccc(C#N)c(Cl)c2)n1)NC(=O)c1cc(C(C)O)[nH]n1 (stereo not given) + CC(Nc1ccc2c(c1)OCCn1cc(N3C(=O)OCC3C(F)F)nc1-2)C(N)=O
false

Test call, this compound: CC(C)NCC(C(=O)N1CCN(c2ncnc3c2C(C)CC3O)CC1)c1ccc(Cl)cc1 (stereo not given) + CC(Nc1ccc2c(c1)OCCn1cc(N3C(=O)OCC3C(F)F)nc1-2)C(N)=O
false

Test call, this compound: Cn1ncc(Cl)c1-c1cc(C(=O)NC(CN)Cc2cccc(F)c2)sc1Cl (stereo not given) + CC(Nc1ncnc2nc[nH]c12)c1cc2cccc(Cl)c2c(=O)n1-c1ccccc1
false

Test call, this compound: CC1(C)CCC(CN2CCN(c3ccc(C(=O)NS(=O)(=O)c4ccc(NCC5CCOCC5)c([N+](=O)[O-])c4)c(Oc4cnc5[nH]ccc5c4)c3)CC2)=C(c2ccc(Cl)cc2)C1 + CC(Nc1ccc2c(c1)OCCn1cc(N3C(=O)OCC3C(F)F)nc1-2)C(N)=O
false

* * *

For each record, write down the corresponding viability, T/C.
- Test system: 171881-019-R-J1-PDC tumor spheroid viability
- test: Anticancer human tumor 171881-019-R-J1-PDC cell line growth inhibition [PI3K];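 also: spheroids exposed to compound for 7 days before viability read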;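 as to viability, T/C: 100% = DMSO vehicle-treated spheroids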
- experimental setup: second compound 0.0316 µM; first compound 3 µM; stronger effect = lower value; spheroids with HUVEC and MSC
Answer in %, number only, no unit symbol.

Lab note: measured viability, T/C of Cn1cnc2c(F)c(Nc3ccc(Br)cc3Cl)c(C(=O)NOCCO)cc21 + CC(Nc1ccc2c(c1)OCCn1cc(N3C(=O)OCC3C(F)F)nc1-2)C(N)=O was 6.34

Lab note: measured viability, T/C of Cn1cnc2c(F)c(Nc3ccc(Br)cc3Cl)c(C(=O)NOCCO)cc21 + CC(Nc1ncnc2nc[nH]c12)c1cc2cccc(Cl)c2c(=O)n1-c1ccccc1 was 19.5

Lab note: measured viability, T/C of Cn1cnc2c(F)c(Nc3ccc(Br)cc3Cl)c(C(=O)NOCCO)cc21 + Cc1nc(NC(=O)N2CCCC2C(N)=O)sc1-c1ccnc(C(C)(C)C(F)(F)F)c1 was 16

Lab note: measured viability, T/C of Cn1cnc2c(F)c(Nc3ccc(Br)cc3Cl)c(C(=O)NOCCO)cc21 + COc1c(OCCCN2CCOCC2)ccc2c3n(c(=NC(=O)c4cnc(N)nc4)nc12)CCN3 was 1.88

* * *

- Tested on: 171881-019-R-J1-PDC tumor spheroid viability
- test: Anticancer human tumor 171881-019-R-J1-PDC cell line growth inhibition [PI3K];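 also: spheroids exposed to compound for 7 days before viability read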
- experimental setup: curve of first compound; second compound 0.00316 µM; spheroids with HUVEC and MSC
- Source text: Combinatorial screen of targeted agents with the PI3K inhibitors inavolisib, alpelisib, duvelisib, and copanlisib in multi-cell type tumor spheroids A high-throughput screen of multi-cell type tumor spheroids was designed to identify active combinations of targeted small molecules and PI3K pathway inhibitors. […] Compounds. […] If the clinical Cmax for an agent had not been determined, the highest concentration tested was 10 microM. […]
// classify: if (IC50 < 70 nM) 1.0 else 0.0

hey, is IC50 for CC(=O)c1c(C)c2cnc(Nc3ccc(N4CCNCC4)cn3)nc2n(C2CCCC2)c1=O + COc1c(OCCCN2CCOCC2)ccc2c3n(c(=NC(=O)c4cnc(N)nc4)nc12)CCN3 lower than 70 nM or not?
0.0

hey, is IC50 for C=CC(=O)N1CCN(c2nc(=O)n(-c3c(C)ccnc3C(C)C)c3nc(-c4c(O)cccc4F)c(F)cc23)C(C)C1 (stereo unspecified) + COc1c(OCCCN2CCOCC2)ccc2c3n(c(=NC(=O)c4cnc(N)nc4)nc12)CCN3 lower than 70 nM or not?
0.0

hey, is IC50 for CC(C)n1nc(-c2ccc3oc(N)nc3c2)c2c(N)ncnc21 + COc1c(OCCCN2CCOCC2)ccc2c3n(c(=NC(=O)c4cnc(N)nc4)nc12)CCN3 lower than 70 nM or not?
1.0

hey, is IC50 for Cn1cnc2c(F)c(Nc3ccc(Br)cc3Cl)c(C(=O)NOCCO)cc21 + COc1c(OCCCN2CCOCC2)ccc2c3n(c(=NC(=O)c4cnc(N)nc4)nc12)CCN3 lower than 70 nM or not?
1.0

hey, is IC50 for CCN1CCN(Cc2ccc(Nc3ncc(F)c(-c4cc(F)c5nc(C)n(C(C)C)c5c4)n3)nc2)CC1 + COc1c(OCCCN2CCOCC2)ccc2c3n(c(=NC(=O)c4cnc(N)nc4)nc12)CCN3 lower than 70 nM or not?
0.0

hey, is IC50 for C#Cc1c(F)ccc2cc(O)cc(-c3ncc4c(N5CC6CCC(C5)N6)nc(OCC56CCCN5CC(F)C6)nc4c3F)c12 (stereo unspecified) + CC(Nc1ccc2c(c1)OCCn1cc(N3C(=O)OCC3C(F)F)nc1-2)C(N)=O lower than 70 nM or not?
0.0

hey, is IC50 for Cn1ncc(Cl)c1-c1cc(C(=O)NC(CN)Cc2cccc(F)c2)sc1Cl (stereo unspecified) + COc1c(OCCCN2CCOCC2)ccc2c3n(c(=NC(=O)c4cnc(N)nc4)nc12)CCN3 lower than 70 nM or not?
0.0

hey, is IC50 for Cn1ncnc1[C@H]1c2n[nH]c(=O)c3cc(F)cc(c23)N[C@@H]1c1ccc(F)cc1 + COc1c(OCCCN2CCOCC2)ccc2c3n(c(=NC(=O)c4cnc(N)nc4)nc12)CCN3 lower than 70 nM or not?
0.0

hey, is IC50 for C[C@@H](NC(=O)c1ncnc(N)c1Cl)c1ncc(C(=O)Nc2cc(C(F)(F)F)c(Cl)cn2)s1 + CC(Nc1ccc2c(c1)OCCn1cc(N3C(=O)OCC3C(F)F)nc1-2)C(N)=O lower than 70 nM or not?
0.0

hey, is IC50 for CC(=O)c1c(C)c2cnc(Nc3ccc(N4CCNCC4)cn3)nc2n(C2CCCC2)c1=O + CC(Nc1ccc2c(c1)OCCn1cc(N3C(=O)OCC3C(F)F)nc1-2)C(N)=O lower than 70 nM or not?
0.0

hey, is IC50 for CC(Cn1ccc(-c2ccc(C#N)c(Cl)c2)n1)NC(=O)c1cc(C(C)O)[nH]n1 (stereo unspecified) + CC(Nc1ccc2c(c1)OCCn1cc(N3C(=O)OCC3C(F)F)nc1-2)C(N)=O lower than 70 nM or not?
0.0

* * *

- Test system: 171881-019-R-J1-PDC tumor spheroid viability
- test: Anticancer human tumor 171881-019-R-J1-PDC cell line growth inhibition [PI3K]; active = viability on the fitted dose curve at most 10% of control; inactive = the rest;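 also: spheroids exposed to compound for 7 days before viability read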
- experimental setup: second compound 0.316 µM; first compound 1 µM; spheroids with HUVEC and MSC
Outcome (select one): active, inactive

Test call, this compound: CC1(C)CCC(Nc2ncc(C(F)(F)F)c(-c3c[nH]c4c(P(C)(C)=O)c(C#N)ccc34)n2)CN1 (stereo not given) + Cc1nc(NC(=O)N2CCCC2C(N)=O)sc1-c1ccnc(C(C)(C)C(F)(F)F)c1
inactive

Test call, this compound: Cn1ncc(Cl)c1-c1cc(C(=O)NC(CN)Cc2cccc(F)c2)sc1Cl (stereo not given) + CC(Nc1ccc2c(c1)OCCn1cc(N3C(=O)OCC3C(F)F)nc1-2)C(N)=O
inactive

Test call, this compound: CC1(C)CCC(CN2CCN(c3ccc(C(=O)NS(=O)(=O)c4ccc(NCC5CCOCC5)c([N+](=O)[O-])c4)c(Oc4cnc5[nH]ccc5c4)c3)CC2)=C(c2ccc(Cl)cc2)C1 + CC(Nc1ncnc2nc[nH]c12)c1cc2cccc(Cl)c2c(=O)n1-c1ccccc1
inactive

Test call, this compound: CC1(C)CCC(CN2CCN(c3ccc(C(=O)NS(=O)(=O)c4ccc(NCC5CCOCC5)c([N+](=O)[O-])c4)c(Oc4cnc5[nH]ccc5c4)c3)CC2)=C(c2ccc(Cl)cc2)C1 + COc1c(OCCCN2CCOCC2)ccc2c3n(c(=NC(=O)c4cnc(N)nc4)nc12)CCN3
active

Test call, this compound: C=CC(=O)N1CCN(c2nc(=O)n(-c3c(C)ccnc3C(C)C)c3nc(-c4c(O)cccc4F)c(F)cc23)C(C)C1 (stereo not given) + CC(Nc1ccc2c(c1)OCCn1cc(N3C(=O)OCC3C(F)F)nc1-2)C(N)=O
inactive

Test call, this compound: CC(C)NCC(C(=O)N1CCN(c2ncnc3c2C(C)CC3O)CC1)c1ccc(Cl)cc1 (stereo not given) + Cc1nc(NC(=O)N2CCCC2C(N)=O)sc1-c1ccnc(C(C)(C)C(F)(F)F)c1
inactive

Test call, this compound: CC(Cn1ccc(-c2ccc(C#N)c(Cl)c2)n1)NC(=O)c1cc(C(C)O)[nH]n1 (stereo not given) + CC(Nc1ncnc2nc[nH]c12)c1cc2cccc(Cl)c2c(=O)n1-c1ccccc1
inactive

Test call, this compound: CCCS(=O)(=O)Nc1ccc(F)c(C(=O)c2c[nH]c3ncc(-c4ccc(Cl)cc4)cc23)c1F + CC(Nc1ncnc2nc[nH]c12)c1cc2cccc(Cl)c2c(=O)n1-c1ccccc1
inactive

Test call, this compound: C#Cc1c(F)ccc2cc(O)cc(-c3ncc4c(N5CC6CCC(C5)N6)nc(OCC56CCCN5CC(F)C6)nc4c3F)c12 (stereo not given) + COc1c(OCCCN2CCOCC2)ccc2c3n(c(=NC(=O)c4cnc(N)nc4)nc12)CCN3
active

Test call, this compound: CCCS(=O)(=O)Nc1ccc(F)c(C(=O)c2c[nH]c3ncc(-c4ccc(Cl)cc4)cc23)c1F + CC(Nc1ccc2c(c1)OCCn1cc(N3C(=O)OCC3C(F)F)nc1-2)C(N)=O
inactive

Test call, this compound: CC1(C)CCC(CN2CCN(c3ccc(C(=O)NS(=O)(=O)c4ccc(NCC5CCOCC5)c([N+](=O)[O-])c4)c(Oc4cnc5[nH]ccc5c4)c3)CC2)=C(c2ccc(Cl)cc2)C1 + Cc1nc(NC(=O)N2CCCC2C(N)=O)sc1-c1ccnc(C(C)(C)C(F)(F)F)c1
inactive

Test call, this compound: C#Cc1c(F)ccc2cc(O)cc(-c3ncc4c(N5CC6CCC(C5)N6)nc(OCC56CCCN5CC(F)C6)nc4c3F)c12 (stereo not given) + Cc1nc(NC(=O)N2CCCC2C(N)=O)sc1-c1ccnc(C(C)(C)C(F)(F)F)c1
inactive

Test call, this compound: C[C@@H](NC(=O)c1ncnc(N)c1Cl)c1ncc(C(=O)Nc2cc(C(F)(F)F)c(Cl)cn2)s1 + COc1c(OCCCN2CCOCC2)ccc2c3n(c(=NC(=O)c4cnc(N)nc4)nc12)CCN3
active

Test call, this compound: Cn1nccc1Nc1nccc(-c2ccn(C(CO)c3ccc(Cl)c(F)c3)c(=O)c2)n1 (stereo not given) + COc1c(OCCCN2CCOCC2)ccc2c3n(c(=NC(=O)c4cnc(N)nc4)nc12)CCN3
active

Test call, this compound: CNC(=O)c1ccc(N2C(=S)N(c3ccc(C#N)c(C(F)(F)F)c3)C(=O)C2(C)C)cc1F + CC(Nc1ncnc2nc[nH]c12)c1cc2cccc(Cl)c2c(=O)n1-c1ccccc1
inactive

Test call, this compound: CCN1CCN(Cc2ccc(Nc3ncc(F)c(-c4cc(F)c5nc(C)n(C(C)C)c5c4)n3)nc2)CC1 + COc1c(OCCCN2CCOCC2)ccc2c3n(c(=NC(=O)c4cnc(N)nc4)nc12)CCN3
active

Test call, this compound: C=CC(=O)N1CCN(c2nc(=O)n(-c3c(C)ccnc3C(C)C)c3nc(-c4c(O)cccc4F)c(F)cc23)C(C)C1 (stereo not given) + CC(Nc1ncnc2nc[nH]c12)c1cc2cccc(Cl)c2c(=O)n1-c1ccccc1
inactive

Test call, this compound: Cn1nccc1Nc1nccc(-c2ccn(C(CO)c3ccc(Cl)c(F)c3)c(=O)c2)n1 (stereo not given) + CC(Nc1ccc2c(c1)OCCn1cc(N3C(=O)OCC3C(F)F)nc1-2)C(N)=O
active

Test call, this compound: C#Cc1c(F)ccc2cc(O)cc(-c3ncc4c(N5CC6CCC(C5)N6)nc(OCC56CCCN5CC(F)C6)nc4c3F)c12 (stereo not given) + CC(Nc1ncnc2nc[nH]c12)c1cc2cccc(Cl)c2c(=O)n1-c1ccccc1
inactive

Test call, this compound: CC1(C)CCC(Nc2ncc(C(F)(F)F)c(-c3c[nH]c4c(P(C)(C)=O)c(C#N)ccc34)n2)CN1 (stereo not given) + COc1c(OCCCN2CCOCC2)ccc2c3n(c(=NC(=O)c4cnc(N)nc4)nc12)CCN3
active
